- target-or-system: T1, bacterially produced human IL-6 (human, UniProt P05231 30-212)
- T1 construct: also called bactIL-6; prokaryotic IL-6
- assay-info: SPR; purified Fab over biotinylated IL-6 on streptavidin chip
measured-attribute: log10(Ka) (log10 of the value in M⁻¹)
In our notation, the value equals log10 of Ka in M⁻¹.

Example binders with recorded log10(Ka):
binder: Fab 29B11 (Fab, V domains shown, Fab) VH: EVQLVESGGGLVQPGGSLRLSCAASGFTFSSYAMSWVRQAPGKGLEWVSRISSGGISTYYADSVKGRFTISRDNAKNTLYLQMNSLKPEDTAVYYCVRYAWGVQWAFDFWGQGTQVTVSS VL: QSVLTQPPSVSGSPGQTVTISCAGTSEDVGYGNYVSWYQQLPGMAPKLLIYDVNKRASGIADRFSGSKSGNTASLTISGLQSEDEADYYCASYRRTIDNIFGGGTHLTVLG
log10(Ka): 7.64
--
binder: Fab 18C9 (Fab, V domains shown, Fab) VH: EVQLVESGGGLVQPGGSLRLSCAASGFTFSRNAMSWVRQAPGKGLEWVSAINSGGGSTSYADSVKGRFTISRDNAKNTLYLQMNSLKPEDTAVYYCAKEGYTGWKDPMYDYWGQGTQVTVSS VL: LNFMLTQPSALSVTLGQTAKITCQGGSLGSRYAHWYQQKPGQAPVLVIYDDDSRPSGIPERFSGSSSGGRATLTISGAQAEDDGDYYCQSADSSGNASVFGGGTHLTVLG
log10(Ka): 7.67
--
binder: Fab 28C6 (Fab, V domains shown, Fab) VH: QVQLVESGGGLVQPGGSLRLSCAASGFTFSNYYMTWVRQAPGKGLEWVSSIYSFSGDTAYADSVKGRFTISRDNAKNTLYLQMNKLKSEDTAVYYCTRDLGGVVVTANGYDYWGQGTQVTVSS VL: DIVMTQTPSSLSASLGDRVTITCQASQSISTELSWYQQKPGQTPKLLIYGASRLQTGVPARFSGSGSGTSFTLTISGLEAEDLATYYCLQDYSWPYSFGSGTRL
log10(Ka): 7.61
--
binder: Fab 18F8 (Fab, V domains shown, Fab) VH: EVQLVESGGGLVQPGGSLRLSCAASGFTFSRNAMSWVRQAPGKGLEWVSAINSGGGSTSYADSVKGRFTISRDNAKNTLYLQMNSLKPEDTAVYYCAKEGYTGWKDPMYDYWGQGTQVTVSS VL: QSALTQPSALSVTLGQTAKITCQGGSLGSRYAHWYQQKPGQAPVLVIYDDDSRPSGIPERFSGSSSGGRATLTISGAQAEDEGDYYCQSADTSEHIVFGGGTHLTVLG
log10(Ka): 7.79
--
binder: Fab 24C9 (Fab, V domains shown, Fab) VH: QVQLVESGGGLVQPGGSLRLSCAASGFTFSSYRMYWVRQPPGKGLEWVSAISAGGGSTYYGDSVKGRFTISRDNAKNTVYLQMNSLKPEDTALYYCKKSTWADGESDYWGQGTQVTVSS VL: QTVVTQEPSLSVSPGGTVTLTCGLSSGSVTASNYPGWFQQTPGQAPRALIYSTNDRHSGVPSRFSGSISGNKAALTITGAQPEDEADYYCALDIGDITEFGGGTHLTVLG
log10(Ka): 9.18

In: Quick one: log10(Ka) of Fab 18C11 (Fab, V domains shown, Fab) VH: EVQLVESGGGLVQPGGSLRLSCAASGFTFSSYAMSWVRQAPGKGLEWVSAINSGGGSTSYADSVKGRFTISRDNAKNTLYLQMNSLKPEDTAVYYCAKEGDTGWKDPMYDYWGQGTQVTVSS VL: QSVVTQPSALSVTLGQTAKITCQGGGLRSSYAHWYQQKPGQAPVLVIYDDDSRPSGIPERFSGSSSGGRATLTISGAQAEDEGDYYCQSADSSGNAAVFGGGTHLTVLG ?
Out: 7.85

In: # log10(Ka) lookup, item Fab 18C7 (Fab, V domains shown, Fab; also called 18C7 (090-423)) VH: EVQLVESGPGLVKPSQTLSLTCTVSGGSITASFDAWSWIRQPPGKGLEWMGVIAYDGSTYYSPSLKSRTSISRDTSKNQFSLQLSSVTPEDTAVYYCARKSSWLIGYGMDYWGKGTLVTVSS VL: QAGLTQPSALSVTLGQTAKITCQGGSLGSSYAHWYQQKPGQAPVLVIYDDDSRPSGIPERFSGSSSGGRATLTISGAQAEDEGDYYCQSADSSGNAAVFGGGTHLTVLG
Out: 7.76

In: Suppose we examine the binder Fab 24D10 (Fab, V domains shown, Fab; also called pur24d10; 28f12(24D10)) VH: QLQVVESGGGLVQPGGSLRLSCAASGFTFSSYAMSWVRQAPGKGPEWVSRISSGGGSTSYADSVKGRFTISRDNAKNTLYLQMNSLKPEDTAVYYCANRAGWGMGDYWGQGTQVTVSS VL: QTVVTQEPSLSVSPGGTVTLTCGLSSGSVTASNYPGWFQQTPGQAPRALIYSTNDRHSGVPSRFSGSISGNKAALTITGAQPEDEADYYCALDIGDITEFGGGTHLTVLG ; what log10(Ka) value has been reported?
Out: 9.57

In: What value of measured log10(Ka) is listed for Fab 20A4 (Fab, V domains shown, Fab) VH: EVQLQESGPGLVKPSQTLSLTCTVSGGSITTRYYAWSWIRQPPGKGLEWMGVIDYDGDTYYSPSLKSRTSISWDTSKNQFSLQLSSVTPEDTAVYYCARDPDVVTGFHYDYWGQGTQVTVSS VL: LNFMLTQPPSVSGTLGKTVTISCAGTSSDIGGYNYVSWYQQLPGTAPKLLIHRVSTRASGIPDRFSGSKSGNTASLTISGLRSEDEANYYCASYRNFNNAVFGGGTQLTVLG ?
Out: 8.24

In: Would you kindly share the measured log10(Ka) for Fab 24E9 (Fab, V domains shown, Fab) VH: EVQLVESGGGLVQPGGSLRLSCAASGFTFSTYAMSWVRQAPGKGPEWVSRISSGGGSTNYADSVKGRFTISRDNAKKTLYLQMKSLKPEDTAVYYCANRAGWGMGDYWGQGTQVTVSS VL: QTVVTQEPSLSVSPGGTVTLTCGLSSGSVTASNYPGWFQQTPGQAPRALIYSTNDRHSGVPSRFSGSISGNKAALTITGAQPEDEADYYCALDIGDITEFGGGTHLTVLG ?
Out: 8.92
